- method summary: In vivo pharmacokinetics, monkeys
- Set-up: species or system monkey
- condition: female, plasma; Monkey, 5 mg/kg PO-Fed, 3F (females); read-out: BA (absolute oral bioavailability)
- Method: All animals received a single oral or intravenous dose of compound in either polyethylene glycol 400 (PEG400) or a mixture of 10% ethanol (EtOH), 10% dimethylacetamine (DMA) and 80% PEG400 at the indicated dose level. […] The absolute oral bioavailability was determined in pharmacokinetic by comparison of AUC values of parent compound following single intravenous and oral doses of in rats (compound III only), dogs and monkeys.
measured property: bioavailability (%)

>  <compound>
CO[P@](=O)(c1cc(C)cc(/C=C/C#N)c1)c1c(C(N)=O)[nH]c2ccc(Cl)cc12 [Compound III]

>  <measured property>
bioavailability

>  <experimental result>
76

$$$$

====

- method summary: In vivo pharmacokinetics, dogs
- condition: both sexes, plasma; Dog, 5 mg/kg PO-Fed, M+F, mean

>  <given smiles>
CO[P@](=O)(c1cc(C)cc(/C=C/C#N)c1)c1c(C(N)=O)[nH]c2ccc(Cl)cc12

>  <Tmax>
1.5 h

$$$$

====

- subject of test: human DNA polymerase alpha (Homo sapiens)
- Sequence (P09884 whole entry): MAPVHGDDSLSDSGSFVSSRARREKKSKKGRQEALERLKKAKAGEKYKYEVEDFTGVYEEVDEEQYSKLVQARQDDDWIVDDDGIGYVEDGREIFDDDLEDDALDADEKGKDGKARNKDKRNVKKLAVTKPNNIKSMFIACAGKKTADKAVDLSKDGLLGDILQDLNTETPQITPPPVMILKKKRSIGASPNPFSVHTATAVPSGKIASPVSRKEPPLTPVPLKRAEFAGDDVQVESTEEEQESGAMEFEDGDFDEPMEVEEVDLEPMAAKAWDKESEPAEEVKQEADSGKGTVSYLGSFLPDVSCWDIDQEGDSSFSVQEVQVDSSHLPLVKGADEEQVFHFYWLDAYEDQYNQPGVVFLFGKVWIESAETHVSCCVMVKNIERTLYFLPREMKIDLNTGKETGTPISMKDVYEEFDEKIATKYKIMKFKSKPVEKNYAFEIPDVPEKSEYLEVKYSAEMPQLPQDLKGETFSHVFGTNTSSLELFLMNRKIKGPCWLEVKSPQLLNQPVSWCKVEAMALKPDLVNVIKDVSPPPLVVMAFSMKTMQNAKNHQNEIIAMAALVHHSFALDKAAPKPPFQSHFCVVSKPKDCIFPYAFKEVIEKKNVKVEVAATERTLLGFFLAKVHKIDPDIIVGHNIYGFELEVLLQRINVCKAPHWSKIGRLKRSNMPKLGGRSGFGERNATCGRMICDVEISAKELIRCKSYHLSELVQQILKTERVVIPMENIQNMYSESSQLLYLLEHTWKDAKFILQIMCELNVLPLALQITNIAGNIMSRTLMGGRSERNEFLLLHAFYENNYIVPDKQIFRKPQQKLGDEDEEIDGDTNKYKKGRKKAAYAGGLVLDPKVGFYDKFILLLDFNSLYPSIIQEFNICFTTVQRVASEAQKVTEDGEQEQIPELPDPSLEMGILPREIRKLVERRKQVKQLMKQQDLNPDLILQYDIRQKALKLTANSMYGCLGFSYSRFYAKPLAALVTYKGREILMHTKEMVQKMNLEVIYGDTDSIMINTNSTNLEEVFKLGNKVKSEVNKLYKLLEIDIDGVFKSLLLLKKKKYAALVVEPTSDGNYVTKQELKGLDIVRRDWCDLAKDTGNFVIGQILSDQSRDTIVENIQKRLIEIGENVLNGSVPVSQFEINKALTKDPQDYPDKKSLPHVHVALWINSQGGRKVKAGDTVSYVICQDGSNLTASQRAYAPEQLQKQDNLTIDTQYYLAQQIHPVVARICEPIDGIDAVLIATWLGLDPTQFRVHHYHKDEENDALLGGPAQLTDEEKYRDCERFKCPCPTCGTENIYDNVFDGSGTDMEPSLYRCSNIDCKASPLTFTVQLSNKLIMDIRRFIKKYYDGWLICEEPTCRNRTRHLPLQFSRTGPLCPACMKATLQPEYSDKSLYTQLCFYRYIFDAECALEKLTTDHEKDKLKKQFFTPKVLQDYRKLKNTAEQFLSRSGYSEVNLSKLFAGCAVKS
- method summary: Human cellular DNA polymerase alpha assay
- Assay type: biochemical
- condition: Table 5; read-out: Average IC50 Values ± Standard Deviation, DNA Pol Alpha
*1 amine or outer side, *2 acyl side, *3 side chain or, on linkers, in order; H or OH if unused. Where a SMILES comes first, the peptide text is derived from it. Bridges are numbered along the chain shown (N, C = ends). Roman numbers before positions name the chains, in order. [ ]: non-standard residue; d: D form. Actinocin(9to1) = Cc1c2oc3c(C)ccc(C(=O)[*:1])c3nc-2c(C(=O)[*:2])c(N)c1=O; NMeV = CN[C@H](C(=O)O)C(C)C; Sar = CNCC(=O)O

>  <compound>
O=C1Nc2ccc(Cl)cc2C(C#CC2CC2)(C(F)(F)F)O1 (stereo not drawn) [EFV, reference compound]

>  <IC50 / µM>
109

$$$$
>  <compound>
Cc1c2oc3c(C)ccc(C(=O)N[C@@H]4C(=O)N[C@H](C(C)C)C(=O)N5CCC[C@H]5C(=O)N(C)CC(=O)N(C)[C@@H](C(C)C)C(=O)O[C@@H]4C)c3nc-2c(C(=O)N[C@@H]2C(=O)N[C@H](C(C)C)C(=O)N3CCC[C@H]3C(=O)N(C)CC(=O)N(C)[C@@H](C(C)C)C(=O)O[C@@H]2C)c(N)c1=O [Act. D, actinomycin D, reference compound] (I: T[dV]P[Sar][NMeV] / II: T[dV]P[Sar][NMeV]; ester I:1-I:C, II:1-II:C; linker I:N-II:N via Actinocin(9to1))

>  <IC50 / µM>
16.1

$$$$
>  <compound>
CO[P@](=O)(c1cc(C)cc(/C=C/C#N)c1)c1c(C(N)=O)[nH]c2ccc(Cl)cc12 [Compound III]

>  <IC50 / µM>
159

$$$$

====

- method summary: Compound depletion in hepatocytes, monkey
- Assay type: in vitro ADME
- condition: hepatocytes, up to 2 hours, read-out: t½, Compound Depletion in Hepatocytes, Monkey
measured property: half-life at 1 μM (h)

>  <given smiles>
CO[P@](=O)(c1cc(C)cc(/C=C/C#N)c1)c1c(C(N)=O)[nH]c2ccc(Cl)c(F)c12

>  <experimental result>
1.05

$$$$

====

- method summary: Cellular cytotoxicity, 4 days, MTS, U937
- Format: cell-based
- condition: human, U-937 cells (monocytes derived from a histiocytic lymphoma), Table 21, read-out: Average CC50 Values ± Standard Deviation, U937

>  <compound>
O=C1Nc2ccc(Cl)cc2C(C#CC2CC2)(C(F)(F)F)O1 (centres unmarked) [EFV, reference compound]

>  <CC50 at 4 days [µM]>
23.2

$$$$
>  <compound>
CO[P@](=O)(c1cc(C)cc(/C=C/C#N)c1)c1c(C(N)=O)[nH]c2ccc(Cl)cc12

>  <CC50 at 4 days [µM]>
24.6

$$$$

====

- subject of test: human DNA polymerase gamma (Homo sapiens, UniProt P54098)
- Sequence (P54098 whole entry): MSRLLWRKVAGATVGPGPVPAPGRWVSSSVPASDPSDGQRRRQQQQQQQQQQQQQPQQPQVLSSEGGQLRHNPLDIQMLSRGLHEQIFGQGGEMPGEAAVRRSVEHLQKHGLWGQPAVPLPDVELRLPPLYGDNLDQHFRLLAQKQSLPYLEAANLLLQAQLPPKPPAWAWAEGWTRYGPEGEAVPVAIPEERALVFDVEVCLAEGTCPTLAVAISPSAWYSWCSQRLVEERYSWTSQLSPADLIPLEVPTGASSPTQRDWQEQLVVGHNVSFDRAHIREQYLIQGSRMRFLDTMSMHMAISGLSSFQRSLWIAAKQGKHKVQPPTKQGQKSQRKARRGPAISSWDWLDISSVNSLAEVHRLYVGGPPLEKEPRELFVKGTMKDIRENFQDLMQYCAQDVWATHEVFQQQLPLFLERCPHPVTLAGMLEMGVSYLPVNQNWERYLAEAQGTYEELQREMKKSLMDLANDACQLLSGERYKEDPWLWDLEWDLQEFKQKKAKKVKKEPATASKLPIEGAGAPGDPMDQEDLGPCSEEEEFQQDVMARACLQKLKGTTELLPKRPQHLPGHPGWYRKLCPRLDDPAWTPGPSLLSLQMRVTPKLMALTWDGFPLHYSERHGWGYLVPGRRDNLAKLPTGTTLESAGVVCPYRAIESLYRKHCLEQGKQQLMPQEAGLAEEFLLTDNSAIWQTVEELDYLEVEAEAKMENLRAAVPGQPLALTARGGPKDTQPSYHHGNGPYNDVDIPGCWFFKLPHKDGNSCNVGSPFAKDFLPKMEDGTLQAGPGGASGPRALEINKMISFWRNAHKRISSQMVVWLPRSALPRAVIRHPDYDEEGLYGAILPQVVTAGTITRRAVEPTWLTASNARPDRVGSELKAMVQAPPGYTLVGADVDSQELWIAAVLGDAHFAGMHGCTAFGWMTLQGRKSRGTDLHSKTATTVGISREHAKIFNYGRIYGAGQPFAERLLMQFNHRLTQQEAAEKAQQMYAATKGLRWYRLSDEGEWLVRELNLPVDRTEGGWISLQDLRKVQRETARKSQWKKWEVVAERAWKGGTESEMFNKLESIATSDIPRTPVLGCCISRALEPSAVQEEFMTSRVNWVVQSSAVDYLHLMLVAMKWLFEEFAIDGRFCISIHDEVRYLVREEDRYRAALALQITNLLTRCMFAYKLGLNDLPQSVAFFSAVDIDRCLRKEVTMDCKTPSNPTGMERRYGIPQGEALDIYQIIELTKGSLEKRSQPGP
- method summary: Human cellular DNA polymerase gamma assay
- Type: biochemical
- condition: Table 6; N=4; read-out: Mean IC50 Values ± Standard Deviation, DNA Pol Gamma
*1 amine or outer side, *2 acyl side, *3 side chain or, on linkers, in order; H or OH if unused. Where a SMILES comes first, the peptide text is derived from it. Bridges are numbered along the chain shown (N, C = ends). Roman numbers before positions name the chains, in order. [ ]: non-standard residue; d: D form. Actinocin(9to1) = Cc1c2oc3c(C)ccc(C(=O)[*:1])c3nc-2c(C(=O)[*:2])c(N)c1=O; NMeV = CN[C@H](C(=O)O)C(C)C; Sar = CNCC(=O)O
compounds and their reported IC50

>  <compound>
Cc1c2oc3c(C)ccc(C(=O)N[C@@H]4C(=O)N[C@H](C(C)C)C(=O)N5CCC[C@H]5C(=O)N(C)CC(=O)N(C)[C@@H](C(C)C)C(=O)O[C@@H]4C)c3nc-2c(C(=O)N[C@@H]2C(=O)N[C@H](C(C)C)C(=O)N3CCC[C@H]3C(=O)N(C)CC(=O)N(C)[C@@H](C(C)C)C(=O)O[C@@H]2C)c(N)c1=O [Act. D, actinomycin D, reference compound] (I: T[dV]P[Sar][NMeV] / II: T[dV]P[Sar][NMeV]; ester I:1-I:C, II:1-II:C; linker I:N-II:N via Actinocin(9to1))

>  <rel>
=

>  <IC50 [µM]>
11.8

$$$$
>  <compound>
O=C1Nc2ccc(Cl)cc2C(C#CC2CC2)(C(F)(F)F)O1 (centres unmarked) [EFV, reference compound]

>  <rel>
≥

>  <IC50 [µM]>
100

$$$$

====

- Test system: HIV-1 BH10 wild-type virus
- method summary: microbe, parasite or virus in culture
- Type: cell-based
- condition: read-out: EC50, BH10; Example 16 comparative tables; unit inferred; several lines per compound
measured property: EC50 (nM)

>  <given smiles>
CO[P@](=O)(c1cc(C)cc(/C=C/C#N)c1)c1c(C(N)=O)[nH]c2ccc(Cl)c(F)c12

>  <measured property>
EC50

>  <experimental result>
0.7

$$$$

====

- subject of test: CYP3A4 (Homo sapiens, UniProt P08684)
- Sequence (P08684 whole entry): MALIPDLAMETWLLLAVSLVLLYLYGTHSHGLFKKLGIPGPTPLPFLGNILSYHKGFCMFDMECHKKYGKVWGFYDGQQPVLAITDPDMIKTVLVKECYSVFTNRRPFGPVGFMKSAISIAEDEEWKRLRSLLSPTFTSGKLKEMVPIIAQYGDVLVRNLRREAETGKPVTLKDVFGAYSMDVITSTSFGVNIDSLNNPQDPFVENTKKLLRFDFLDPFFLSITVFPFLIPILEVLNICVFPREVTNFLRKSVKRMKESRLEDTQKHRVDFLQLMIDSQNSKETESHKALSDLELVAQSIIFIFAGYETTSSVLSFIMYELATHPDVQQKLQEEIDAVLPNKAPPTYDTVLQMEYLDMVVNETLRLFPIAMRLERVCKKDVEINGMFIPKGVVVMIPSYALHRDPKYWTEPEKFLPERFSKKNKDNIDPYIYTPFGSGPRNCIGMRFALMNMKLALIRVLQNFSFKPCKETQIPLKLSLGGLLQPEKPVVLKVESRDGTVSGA
- method summary: Recombinant CYP450 inhibition, fluorometric, CYP3A4
- Type: in vitro ADME
- Design: from tissue; host or cells: pooled human liver microsomes
- condition: recombinant; highest concentration tested 10 μM; read-out: IC50, CYP3A4
pIC50: −log10 of the molar value.
measured property: pIC50

>  <given smiles>
CO[P@@](=O)(c1cc(C)cc(/C=C/C#N)c1)c1c(C(N)=O)[nH]c2ccc(Cl)cc12

>  <measured property>
pIC50

>  <experimental result>
5.53

$$$$
>  <given smiles>
CO[P@](=O)(c1cc(C)cc(/C=C/C#N)c1)c1c(C(N)=O)[nH]c2ccc(Cl)cc12

>  <measured property>
pIC50

>  <experimental result>
5.54

$$$$

====

- subject of test: CYP1A2 (Homo sapiens)
- Sequence (P05177 whole entry): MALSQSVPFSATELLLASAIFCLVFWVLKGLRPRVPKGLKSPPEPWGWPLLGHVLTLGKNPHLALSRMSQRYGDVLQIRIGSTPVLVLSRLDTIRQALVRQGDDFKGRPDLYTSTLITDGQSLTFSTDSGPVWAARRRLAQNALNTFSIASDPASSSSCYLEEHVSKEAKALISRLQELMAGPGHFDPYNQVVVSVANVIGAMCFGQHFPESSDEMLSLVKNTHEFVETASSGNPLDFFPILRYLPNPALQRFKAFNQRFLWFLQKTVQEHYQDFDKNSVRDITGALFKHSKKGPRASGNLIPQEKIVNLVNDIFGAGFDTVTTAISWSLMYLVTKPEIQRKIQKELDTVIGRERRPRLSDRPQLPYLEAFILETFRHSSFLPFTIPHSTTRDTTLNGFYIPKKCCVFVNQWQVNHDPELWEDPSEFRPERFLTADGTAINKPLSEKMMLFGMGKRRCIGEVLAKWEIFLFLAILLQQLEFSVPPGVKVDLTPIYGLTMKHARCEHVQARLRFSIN
- method summary: Recombinant CYP450 inhibition, fluorometric, CYP1A2
- Format: in vitro ADME
- Set-up: from tissue; host or cells: pooled human liver microsomes
- condition: human, recombinant enzyme, 20 μM, read-out: percentage of inhibition at the highest concentration tested, CYP1A2

>  <compound>
CO[P@](=O)(c1cc(C)cc(/C=C/C#N)c1)c1c(C(N)=O)[nH]c2ccc(Cl)c(F)c12 [Compound I]

>  <inhibition at 20 µM>
17.5%

$$$$

====

- System: HIV-1 BH10 W.T.
- method summary: Anti-HIV-1 BH10 W.T. activity in presence of HS or AAG
- Type: cell-based
- condition: Human immunodeficiency virus 1, read-out: Average EC50 Values ± Standard Deviation, 10% Fetal Bovine Serum + AAG
pEC50: −log10 of the molar value.
measured property: pEC50

>  <molecule>
CO[P@](=O)(c1cc(C)cc(/C=C/C#N)c1)c1c(C(N)=O)[nH]c2ccc(Cl)c(F)c12 [Compound I]

>  <experimental result>
8.54

$$$$

====

- subject of test: HIV-1 RT V106M mutant enzyme (Human immunodeficiency virus type 1 group M subtype B, UniProt P03366, V705M)
- Construct: Antiviral in vitro activity against site-directed mutant HIV-1 RT enzymes
- method summary: biochemical

>  <given smiles>
CO[P@](=O)(c1cc(C)cc(/C=C/C#N)c1)c1c(C(N)=O)[nH]c2ccc(Cl)c(F)c12

>  <IC50, µM>
0.23

$$$$
>  <given smiles>
CO[P@](=O)(c1cc(C)cc(/C=C/C#N)c1)c1c(C(N)=O)[nH]c2ccc(Cl)cc12

>  <IC50, µM>
0.2

$$$$
